Data origin, for the record: patent US10501482B2

Test system: full length SMN2 minigene mRNA (FL SMN2mini) in HEK293H cells stably transfected with the SMN2-A minigene construct
test-method-notes: SMN2 minigene mRNA splicing RT-qPCR assay in cultured cells
Format: cell-based
setup-conditions: Homo sapiens, HEK293-H, 24 hours, 7-point concentration curve, concentration giving 1.5-fold FL SMN2mini mRNA vs vehicle, read-out: EC1.5x minigene (EC1.5x concentration for production of full length SMN2 minigene mRNA)
Excerpt: The reverse transcription-quantitative PCR-based (RT-qPCR) assay is used to quantify the level of the full length SMN2 minigene (referred to herein by the term “FL SMN2mini”) mRNA containing SMN2 exon 7 in a HEK293H cell line stably transfected with said minigene and treated with a test compound. […] Full length SMN2-A minigene and GAPDH mRNA are quantified using the primers and probes referenced in Table 1. […]
Counter-ions that a name gives are not always drawn.
For each of the compounds below, state its EC (1.5-fold).
Numbers only, in µM.

These solved cases illustrate the format of a correct answer.
1. Cc1cn2cc(NC(=O)c3ccc(N4CCNC(C)C4)c(F)c3F)cc(F)c2n1 (racemic) [Example 45, hydrochloride]
0.0615
2. Cc1cn2cc(NC(=O)c3cnc(N4CCNC(C)C4)c(F)c3)cc(Cl)c2n1 (racemic) [Example 53, hydrochloride]
0.21

Lab note: next compound to report on.
Kindly indicate its recorded EC (1.5-fold). Item: Cc1cn2cc(NC(=O)c3ccc(N4CCNC(C)C4)cc3F)ccc2n1 (racemic)
0.0523
